Data origin: patent US9434711B2

tgt: canine TRPM8 (Canis lupus familiaris, UniProt Q1A7N1)
Sequence (Q1A7N1 1-1104): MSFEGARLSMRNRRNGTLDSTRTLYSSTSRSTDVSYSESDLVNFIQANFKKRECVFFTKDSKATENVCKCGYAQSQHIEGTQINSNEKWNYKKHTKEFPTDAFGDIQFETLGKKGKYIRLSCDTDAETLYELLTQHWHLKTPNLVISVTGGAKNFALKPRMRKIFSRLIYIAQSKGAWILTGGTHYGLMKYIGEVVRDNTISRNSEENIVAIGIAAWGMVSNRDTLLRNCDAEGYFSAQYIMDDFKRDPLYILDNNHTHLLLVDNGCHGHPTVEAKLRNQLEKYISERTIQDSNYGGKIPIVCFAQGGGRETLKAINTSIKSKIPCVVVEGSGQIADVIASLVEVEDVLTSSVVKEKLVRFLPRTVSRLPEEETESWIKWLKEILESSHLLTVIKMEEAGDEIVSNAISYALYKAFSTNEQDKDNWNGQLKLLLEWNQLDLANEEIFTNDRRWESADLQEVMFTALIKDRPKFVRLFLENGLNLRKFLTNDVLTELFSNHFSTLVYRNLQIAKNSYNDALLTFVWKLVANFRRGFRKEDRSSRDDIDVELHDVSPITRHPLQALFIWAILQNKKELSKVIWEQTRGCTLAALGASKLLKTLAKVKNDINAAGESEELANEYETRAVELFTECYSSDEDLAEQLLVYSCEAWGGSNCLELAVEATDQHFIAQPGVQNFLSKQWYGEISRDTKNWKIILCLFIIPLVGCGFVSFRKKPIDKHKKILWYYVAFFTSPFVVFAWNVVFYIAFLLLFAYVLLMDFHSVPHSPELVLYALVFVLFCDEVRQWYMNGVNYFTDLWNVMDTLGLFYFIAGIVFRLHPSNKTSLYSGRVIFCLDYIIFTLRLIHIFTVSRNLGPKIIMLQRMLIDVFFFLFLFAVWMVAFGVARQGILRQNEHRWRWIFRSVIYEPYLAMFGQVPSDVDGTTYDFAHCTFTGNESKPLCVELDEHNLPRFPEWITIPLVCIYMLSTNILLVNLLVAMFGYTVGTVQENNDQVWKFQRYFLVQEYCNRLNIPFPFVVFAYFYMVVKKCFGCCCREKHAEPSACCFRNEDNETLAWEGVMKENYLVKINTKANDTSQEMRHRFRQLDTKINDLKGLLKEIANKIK
protocolDetails: In Vitro Canine TRPM8 Functional Assay (Ca2+ fluorescence, icilin activation)
Format: cell-based
appliedConditions: compound at 0.5 μM; canine TRPM8, icilin activation; read-out: % Inh @ 0.5
measurementKind: inhibition at 0.5 µM (%)

* O=S(=O)(c1ccccc1)N(Cc1cccnc1)c1cc2ccccc2s1 [Compound 53] | 97
* Cc1c(N(Cc2cccc3cccnc23)S(=O)(=O)c2cccc3cnccc23)sc2ccccc12 [Compound 29] | 99
* Cc1c(N(Cc2ccc(F)c(F)c2)S(=O)(=O)c2ccc3ncccc3c2)sc2ccccc12 [Compound 30] | 100
* O=[N+]([O-])c1ccccc1CN(c1cc2ccccc2s1)S(=O)(=O)c1ccccc1 [Compound 55] | 99
* O=S(=O)(c1ccccc1)N(Cc1ccc(F)c(C(F)(F)F)c1)c1cc2ccccc2s1 [Compound 61] | 95
* Cc1c(N(Cc2ccc(F)c(F)c2)S(=O)(=O)c2cccc(F)c2)sc2ccccc12 [Compound 127] | 98
* O=S(=O)(c1ccccc1)N(Cc1ccc(F)c(F)c1)c1cc2cccnc2s1 [Compound 147] | 96
* Cc1c(N(Cc2ccc(F)c(C(F)(F)F)c2)S(=O)(=O)c2cccnc2)sc2ccccc12 [Compound 39] | 101
